Measured target: TJP2_1, Q9UDY2
Sequence (Q9UDY2 24-128): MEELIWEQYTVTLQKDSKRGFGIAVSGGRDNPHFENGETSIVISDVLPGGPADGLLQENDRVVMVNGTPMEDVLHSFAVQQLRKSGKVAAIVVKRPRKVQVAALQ
Assay procedure: holdup assay
Parameters: key: below the threshold = too weak to quantify, mostly under pKd 3.1 to 4
Experimental parameters: plain residues with an end cap or a label only (N-terminal biotin on a linker: ttds)
Endpoint: pKd

- Binder: "EVVHTPETSV [SLC16A3, O15427]"
  Endpoint: "pKd"
  Endpoint value: "below the threshold"
- Binder: "NDPAWDETNL [ARHGEF7, Q14155;Q14155-1]"
  Endpoint: "pKd"
  Endpoint value: "below the threshold"
- Binder: "EMDRRPATVV [PLCB4, Q15147]"
  Endpoint: "pKd"
  Endpoint value: "below the threshold"
- Binder: "FHPLGADSQV [SLC2A1, P11166]"
  Endpoint: "pKd"
  Endpoint value: "below the threshold"
- Binder: "RHTTSTETAV [HPV30-E6, P36809]"
  Endpoint: "pKd"
  Endpoint value: "below the threshold"
- Binder: "SSLQSLETSV [ATP2B4, P23634]"
  Endpoint: "pKd"
  Endpoint value: 3.62
- Binder: "RLPKIKETTV [FRMPD4, Q14CM0]"
  Endpoint: "pKd"
  Endpoint value: "below the threshold"
- Binder: "SGSRPSATVV [HPV73-E6, Q82005]"
  Endpoint: "pKd"
  Endpoint value: 3.77
- Binder: "VDFPPKESSL [ACVR2A, P27037]"
  Endpoint: "pKd"
  Endpoint value: "below the threshold"
- Binder: "PRVKPQRSKV [PPP1R13L, Q8WUF5]"
  Endpoint: "pKd"
  Endpoint value: "below the threshold"
- Binder: "RPLPRKVSQL [DOCK4, Q8N1I0]"
  Endpoint: "pKd"
  Endpoint value: "below the threshold"
- Binder: "KKYVDAETSL [SLC4A7, Q9Y6M7]"
  Endpoint: "pKd"
  Endpoint value: "below the threshold"
- Binder: "SKPTRRETEV [HPV35-E6, P27228]"
  Endpoint: "pKd"
  Endpoint value: "below the threshold"
- Binder: "PVRVCEETSL [OTULIN, Q96BN8]"
  Endpoint: "pKd"
  Endpoint value: "below the threshold"
- Binder: "QRQARSETLV [HPV59-E6, Q81964]"
  Endpoint: "pKd"
  Endpoint value: 3.81
- Binder: "DKDPHSETAL [TMIGD1, Q6UXZ0]"
  Endpoint: "pKd"
  Endpoint value: "below the threshold"
- Binder: "RLQRRRETQV [HPV18-E6, P06463]"
  Endpoint: "pKd"
  Endpoint value: 3.89
